Molecular target: S. cerevisiae flavohemoglobin (Saccharomyces cerevisiae)
Sequence (P39676 whole entry): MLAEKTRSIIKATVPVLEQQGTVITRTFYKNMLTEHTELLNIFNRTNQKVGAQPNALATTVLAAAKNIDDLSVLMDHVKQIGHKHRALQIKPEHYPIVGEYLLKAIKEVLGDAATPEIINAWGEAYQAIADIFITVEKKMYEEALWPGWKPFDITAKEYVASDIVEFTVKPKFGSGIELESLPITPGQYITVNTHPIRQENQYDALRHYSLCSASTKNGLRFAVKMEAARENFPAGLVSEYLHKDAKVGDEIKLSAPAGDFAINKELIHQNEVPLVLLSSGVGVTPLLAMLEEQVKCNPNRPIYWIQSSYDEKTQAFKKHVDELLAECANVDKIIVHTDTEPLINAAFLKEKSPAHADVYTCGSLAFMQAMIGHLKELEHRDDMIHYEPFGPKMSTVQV
quantity_measured: Ki

[[record]]
molecule = "CC(=O)N1CCN(c2ccc(OCC3COC(Cn4ccnc4)(c4ccc(Cl)cc4Cl)O3)cc2)CC1 (stereo not shown) [ketoconazole]"
quantity_measured = "Ki"
test_result = "> 100 µM"


---

Biological target: flavohemoglobins
Experiment: CO binding to ferrous hemes of flavohemoglobins
Details: read-out: dissociation equilibrium constants, ferrous hemes of flavohemoglobins
quantity_measured: Kd

[[record]]
compound = "[C-]#[O+] [CO, carbon monoxide]"
test_result = "< 700 nM"


---

Molecular target: A. eutrophus flavohemoglobin (Cupriavidus necator)
Sequence (P39662 whole entry): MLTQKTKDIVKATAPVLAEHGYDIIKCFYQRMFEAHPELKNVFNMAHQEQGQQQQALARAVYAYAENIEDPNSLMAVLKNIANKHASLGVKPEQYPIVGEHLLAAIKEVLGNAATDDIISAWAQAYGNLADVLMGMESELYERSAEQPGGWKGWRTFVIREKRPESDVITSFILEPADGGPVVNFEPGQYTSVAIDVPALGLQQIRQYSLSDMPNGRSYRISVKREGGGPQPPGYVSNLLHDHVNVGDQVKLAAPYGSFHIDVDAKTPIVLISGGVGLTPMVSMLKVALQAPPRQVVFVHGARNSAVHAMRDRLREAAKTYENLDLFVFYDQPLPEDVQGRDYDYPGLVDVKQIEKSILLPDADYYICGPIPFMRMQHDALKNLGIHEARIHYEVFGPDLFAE
Experiment: biochemical
Conditions: Apparent Ki, second (minor) phase
quantity_measured: Ki (µM)

[[record]]
compound = "CC(=O)N1CCN(c2ccc(OCC3COC(Cn4ccnc4)(c4ccc(Cl)cc4Cl)O3)cc2)CC1 (stereo not shown)"
test_result = 25


---

Target: UniProt P24232
Sequence (P24232 whole entry): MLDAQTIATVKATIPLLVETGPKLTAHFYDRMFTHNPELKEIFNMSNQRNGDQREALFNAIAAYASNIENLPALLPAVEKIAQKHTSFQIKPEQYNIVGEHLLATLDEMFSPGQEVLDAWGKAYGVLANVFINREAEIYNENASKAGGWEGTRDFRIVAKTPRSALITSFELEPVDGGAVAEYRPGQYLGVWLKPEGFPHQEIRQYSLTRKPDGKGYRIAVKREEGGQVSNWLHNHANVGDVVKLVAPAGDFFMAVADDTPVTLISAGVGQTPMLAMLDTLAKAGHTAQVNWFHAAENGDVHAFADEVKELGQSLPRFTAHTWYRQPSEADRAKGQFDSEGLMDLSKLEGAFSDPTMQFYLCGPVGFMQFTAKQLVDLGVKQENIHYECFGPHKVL
quantity_measured: Ki

[[record]]
compound = "CC(=O)N1CCN(c2ccc(OCC3COC(Cn4ccnc4)(c4ccc(Cl)cc4Cl)O3)cc2)CC1 (stereo not shown)"
test_result = "5 µM"


---

Biological target: flavohemoglobins (NOD)
Experiment: CO inhibition of flavohemoglobin NOD activities
Conditions: read-out: Ki, competitive inhibition of NOD activities with respect to O2
quantity_measured: Ki

[[record]]
molecule = "[C-]#[O+] [CO, carbon monoxide]"
test_result = "~1000 nM"

